The compounds listed here are annotated with their IC50.
target: human mGlu2 receptor (Homo sapiens, UniProt Q14416); construct: expressed in transfected cells; host or cells: CHO cells; assay: [35S]GTPγS binding assay (mGluR2 negative allosteric modulation, glutamate ~EC80 60 μM); type: biochemical; details: membranes from CHO cells transfected with human mGlu2 receptor; glutamate ~EC80 (60 μM); pIC50 = −log IC50 (M); read-out: GTPγS-hmGluR2 anGT pIC50 (converted)
Sequence (Q14416 19-872): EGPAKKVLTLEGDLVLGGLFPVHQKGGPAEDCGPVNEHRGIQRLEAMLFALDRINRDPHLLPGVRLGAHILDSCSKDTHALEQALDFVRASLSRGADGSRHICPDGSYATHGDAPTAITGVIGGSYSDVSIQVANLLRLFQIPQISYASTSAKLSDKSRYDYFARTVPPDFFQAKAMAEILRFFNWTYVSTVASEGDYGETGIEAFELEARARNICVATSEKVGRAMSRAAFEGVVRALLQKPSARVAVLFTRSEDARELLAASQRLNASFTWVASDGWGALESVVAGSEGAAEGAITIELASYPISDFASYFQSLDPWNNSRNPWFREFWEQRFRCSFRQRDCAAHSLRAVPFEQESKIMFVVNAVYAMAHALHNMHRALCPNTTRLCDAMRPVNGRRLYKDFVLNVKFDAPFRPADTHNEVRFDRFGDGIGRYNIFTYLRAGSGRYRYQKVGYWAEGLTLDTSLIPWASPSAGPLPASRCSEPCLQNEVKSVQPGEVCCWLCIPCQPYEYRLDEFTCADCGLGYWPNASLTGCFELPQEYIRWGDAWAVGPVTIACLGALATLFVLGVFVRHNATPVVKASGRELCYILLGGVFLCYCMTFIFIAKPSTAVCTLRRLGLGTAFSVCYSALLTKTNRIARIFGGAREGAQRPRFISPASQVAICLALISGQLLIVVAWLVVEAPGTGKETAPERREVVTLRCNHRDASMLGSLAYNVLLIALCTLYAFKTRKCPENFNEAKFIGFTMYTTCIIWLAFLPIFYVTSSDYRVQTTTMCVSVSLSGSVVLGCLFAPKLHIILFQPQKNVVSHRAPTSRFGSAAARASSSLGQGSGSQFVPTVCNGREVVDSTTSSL
Answer in M, number only, no unit symbol.

Sample answers from the record:
compound=COc1ncccc1C(=O)Nc1cnn2c1C(=O)N(c1ccc(C(F)(F)F)cc1)C[C@@H]2C parameter=IC50 unit_info=M result=1.12e-08
compound=C[C@H]1CN(c2ccc(Cl)c(Cl)c2)C(=O)c2c(NC(=O)c3cnccn3)cnn21 parameter=IC50 unit_info=M result=1.82e-09
compound="COCC1CN(c2ccc(C(F)(F)F)cc2)C(=O)c2c(NC(=O)c3ccccc3F)cnn21 (single isomer, unassigned) [Co. No. 62b]" parameter=IC50 unit_info=M result=4.79e-06
compound=COc1cc(N2C[C@H](C)n3ncc(NC(=O)c4ccccn4)c3C2=O)ccc1C(F)(F)F parameter=IC50 unit_info=M result=1.02e-08
compound=C[C@H]1CN(c2ccc(OC(F)(F)F)c(Cl)c2)C(=O)c2c(NC(=O)c3cccnc3)cnn21 parameter=IC50 unit_info=M result=1.58e-09
compound=C[C@H]1CN(c2ccc(C(F)(F)F)cc2)C(=O)c2c(NC(=O)c3ccc(Cl)cn3)cnn21 parameter=IC50 unit_info=M result=1.26e-08

Please list IC50 recorded for the compound COc1ccc(C(=O)Nc2cnn3c2C(=O)N(c2ccc(C(F)(F)F)cc2)C[C@@H]3C)cc1
6.17e-09
